These entries and their values trace back to patent US20160274087A1.

Measured Z-Score, listed per entry.
System: rat beta cells
PROTOCOL_DESCRIPTION: Beta cell DNA synthesis/proliferation by EdU (and BrdU) incorporation, incl. LOPAC screen
Type: cell-based
STATED_CONDITIONS: LOPAC screen at 1 μM; adult rat beta cells; EdU day 3 to 6; hit cut-off three standard deviations

COMPOUND	Z-Score
CCCC1O[C@@H]2C[C@H]3[C@@H]4CCC5=CC(=O)C=C[C@]5(C)[C@H]4[C@@H](O)C[C@]3(C)[C@]2(C(=O)CO)O1 (stereo partly drawn) [Budesonide]	4.1
C[C@]12C=CC(=O)C=C1CC[C@H]1[C@@H]3C[C@@H](O)[C@](O)(C(=O)CO)[C@@]3(C)C[C@H](O)[C@@]12F	5.9
C[C@H]1C[C@H]2[C@@H]3CCC4=CC(=O)C=C[C@]4(C)[C@@]3(F)[C@@H](O)C[C@]2(C)[C@@]1(O)C(=O)CO	5.5
C[C@]12CCC(=O)C=C1CC[C@@H]1[C@@H]2[C@@H](O)C[C@@]2(C)[C@H]1CC[C@]2(O)C(=O)CO [Hydrocortisone, hydrocortisone]	5.4
C[C@]12CCC(=O)C=C1CC[C@@H]1[C@@H]2CC[C@@]2(C)[C@H]1CC[C@]2(O)C(=O)CO [Cortexolone]	4.1
C[C@H]1C[C@H]2[C@@H]3CCC4=CC(=O)C=C[C@]4(C)[C@@]3(Cl)[C@@H](O)C[C@]2(C)[C@@]1(O)C(=O)CO	5.9

###

Measured Percent viable cells, listed per entry.
Tested on: rat beta cells
PROTOCOL_DESCRIPTION: Beta cell viability / cell death (propidium iodide assay)
Format: cell-based
STATED_CONDITIONS: LOPAC screen at 1 μM; adult rat beta cells; day 6; control medium 97

COMPOUND	RESULT_UNITS	Percent viable cells
C[C@]12CCC(=O)C=C1CC[C@@H]1[C@@H]2CC[C@@]2(C)[C@H]1CC[C@]2(O)C(=O)CO [Cortexolone]	%	97
C[C@]12C=CC(=O)C=C1CC[C@H]1[C@@H]3C[C@@H](O)[C@](O)(C(=O)CO)[C@@]3(C)C[C@H](O)[C@@]12F [Triamcinolone]	%	99
CCCC1O[C@@H]2C[C@H]3[C@@H]4CCC5=CC(=O)C=C[C@]5(C)[C@H]4[C@@H](O)C[C@]3(C)[C@]2(C(=O)CO)O1 (stereo partly drawn) [Budesonide]	%	97

###

Measured Percent viable cells, listed per entry.
Tested on: rat beta cells
PROTOCOL_DESCRIPTION: Beta cell viability / cell death (propidium iodide assay)
Type: cell-based
STATED_CONDITIONS: LOPAC screen at 1 μM; adult rat beta cells; day 6; control medium 97
PROPERTY_NAME: Percent viable cells (%)

COMPOUND	RESULT
C[C@]12CCC(=O)C=C1CC[C@@H]1[C@@H]2[C@@H](O)C[C@@]2(C)[C@H]1CC[C@]2(O)C(=O)CO [Hydrocortisone, hydrocortisone]	97
C[C@H]1C[C@H]2[C@@H]3CCC4=CC(=O)C=C[C@]4(C)[C@@]3(F)[C@@H](O)C[C@]2(C)[C@@]1(O)C(=O)CO	95
C[C@H]1C[C@H]2[C@@H]3CCC4=CC(=O)C=C[C@]4(C)[C@@]3(Cl)[C@@H](O)C[C@]2(C)[C@@]1(O)C(=O)CO	96
